- assay_procedure: Malodor reduction potential: headspace GC/MS determination of hexyl amine remaining
- test_parameters: Example 1, Table 3; 0.5 g test compound/mixture, 10 ul hexyl amine, 60 minutes contact at 25° C., headspace
Structures can show the parent of a compound that is named as a salt.
Can you tell me % Reduction of hexyl amine for the items I'm about to list?
Numbers only, in %.

A selection of reference data follows.
O=C(C=Cc1ccccc1)OCc1ccccc1 [benzyl cinnamate] | 23.5
CC(C)=CCCC(C)CCOC(=O)C=C(C)C (centres unmarked) [citronellyl methylcrotonate] | 53.6
CCCCCCOC(=O)/C=C/C(=O)OCCCCCC [dihexyl fumarate] | 68.7
C/C=C/C(=O)OC/C=C(\C)CCC=C(C)C [geranyl crotonate] | 64.7

Lab note: next compound to report on.
*Q* # return recorded % Reduction of hexyl amine for input CCCCC(CC)COC(=O)C=Cc1ccc(OC)cc1 (centres unmarked) [Octyl methyl cinnamate, 2-ethyl-hexyl-para-methoxy-cinnamate]
*A* 54.1
